Every entry's value here was drawn from patent US20070149763A1.

# target-or-test-system: BACE (recombinant human BACE catalytic domain, expressed in CHO cells as BACE-T-IgG, IgG1 removed with thrombin) (human) (UniProt P56817)
# Sequence (P56817 43-460 limits assumed, form in doubt): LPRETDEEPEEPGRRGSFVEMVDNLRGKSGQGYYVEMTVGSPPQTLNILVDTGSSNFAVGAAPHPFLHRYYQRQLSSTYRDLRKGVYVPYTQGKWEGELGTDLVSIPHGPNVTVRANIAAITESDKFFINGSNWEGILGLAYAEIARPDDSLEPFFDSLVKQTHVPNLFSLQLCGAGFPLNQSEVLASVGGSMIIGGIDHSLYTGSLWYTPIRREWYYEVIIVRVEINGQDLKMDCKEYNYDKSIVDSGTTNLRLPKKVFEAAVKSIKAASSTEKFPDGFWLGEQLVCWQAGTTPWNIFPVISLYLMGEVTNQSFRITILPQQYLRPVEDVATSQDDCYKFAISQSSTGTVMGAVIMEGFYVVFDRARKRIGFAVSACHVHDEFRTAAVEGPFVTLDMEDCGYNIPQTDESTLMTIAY
# protocol-text: ITC, pH 5.3, 37° C., peptide titrated into CHO BACE

binder	Kd
Ac-NLTTYPYFIPLP-NH2 […]	380 nM
